Examples of compounds with documented viability follow.
assay: growth suppression of PTEN-deleted HCT116, pilot screen, cell-based, HCT116 clonal line, CellTiter-Glo (AID 824); details: 60 h, at 10 µM, hits give low values;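 also: 0% = 20 µM Hyamine control and 100% = vehicle cell control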
Inconclusive results are not listed.
ASSAY READOUT: viability (%)

compound=CCn1c(CNC(=O)C23CC4CC(CC(C4)C2)C3)nnc1SCC(=O)Nc1nnc(C)s1 assay_readout=viability value_observed=96.9
compound="CCN(CC)C1CC(=O)N(c2cccc(C)c2)C1=O (stereo unspecified)" assay_readout=viability value_observed=101
compound=Cc1ccccc1-c1noc(-c2cccs2)n1 assay_readout=viability value_observed=90.4
compound=COC(=O)CSCc1nc2ccccc2[nH]c1=O assay_readout=viability value_observed=94.8
compound=Cc1nc2ccccc2c2oc(C(=O)NCCCN3CCC(C)CC3)cc12 assay_readout=viability value_observed=64.7
compound=CCCOc1ccc(C(=O)Nc2cc(-c3nn4c(C)nnc4s3)ccc2C)cc1 assay_readout=viability value_observed=92.9
compound="COc1ccc(C2=NOC(C(=O)Nc3cc(C)nn3-c3ccccc3)C2)cc1OC (stereo unspecified)" assay_readout=viability value_observed=97.1
compound="CCCCOc1ccc(NC(=O)C2CC=CCC2C(=O)O)cc1 (stereo unspecified)" assay_readout=viability value_observed=79.5
compound="CC(=O)Nc1cccc(N2C(=O)CC(Cc3ccccc3)C2=O)c1 (stereo unspecified)" assay_readout=viability value_observed=89
compound=CCCN1CCN(C(=O)C2CCN(S(=O)(=O)c3ccc4c(c3)oc(=O)n4C)CC2)CC1 assay_readout=viability value_observed=98.5
compound=CN(C)CCNc1nc2c(c(=O)[nH]c(=O)n2C)n1CCCc1ccccc1 assay_readout=viability value_observed=93.9

====

assay: RAM signaling pathway blockade in yeast – S. cerevisiae, Pdr1DBD-CYC8 efflux-inhibited sensitized strain, primary screen (AID 1298);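 also: 0% = DMSO untreated cells without growth and 100% = 10 µM 1-NA-PP1 full growth; higher means more yeast growth rescued from 5-FOA killing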; details: S. cerevisiae cbk1-as DSE1-URA3 strain, 5-FOA growth OD615, 2 d; at 50 µM; hits give high values
ASSAY READOUT: RAM network inhibition (%)

molecule="CC(C)CCOC(=O)C1C2C=CC3(CN(Cc4cccs4)C(=O)C13)O2 (stereo unspecified)" value_observed=2.76
molecule=Nc1c(C(=O)NCc2ccccc2)nnn1Cc1ccccc1 value_observed=2.99
molecule=Cc1ccccc1NC(=O)c1cnn(-c2ccccc2)c1NC(=O)c1ccco1 value_observed=1.65
molecule=Cc1cccc(-n2ncc3c(N(C)Cc4ccccc4)ncnc32)c1 value_observed=4.33
molecule=CN(Cc1ccccc1)c1nnc(N)s1 value_observed=2.5
molecule=CN(C)CCN(Cc1ccccc1)c1ccnc(N(C)C)c1C#N value_observed=2.08
molecule="CCCOC(=O)c1ccc(NC(=O)C2C3C=CC(O3)C2C(=O)O)cc1 (stereo unspecified)" value_observed=0.36
molecule=Cn1c(C(=O)NC2CCCCCC2)cc2c(=O)n(C)c3ccccc3c21 value_observed=2.31
molecule=CCC(=O)Nc1cccc(-c2nnc(SCC(=O)c3ccccc3)n2C)c1 value_observed=4.95
molecule=CC(=O)NC(=S)c1c(N)n(Cc2ccccc2)c(=O)n(C)c1=O value_observed=4.62
molecule=N=c1c2c(n(Cc3ccc(F)cc3)c3c1CCC3)CCC2 value_observed=0.77
molecule=CCCCCSc1nc2c(c(=O)[nH]c(=O)n2C)n1CCc1ccccc1 value_observed=8.01
molecule=c1ccc(-c2nnc(SCc3nc4ccccc4[nH]3)n2Cc2ccco2)nc1 value_observed=-0.6
molecule=Cn1c(/C(C#N)=C2/CCCCCN2)nc2ccccc21 value_observed=1.35
molecule=O=C(CNC(=O)Cn1ccc2ccccc2c1=O)NCCCN1CCCCCC1 value_observed=4.42
molecule=CCC(=O)NCCn1c(C)cc2ccccc21 value_observed=-0.46
molecule="CC(C)CC(/C(O)=C(\\C#N)c1nc2ccccc2[nH]1)N1C(=O)c2ccccc2C1=O (stereo unspecified)" value_observed=4.23
molecule="CCCn1c(C(O)c2ccc3c(c2)OCO3)nc2ccccc21 (stereo unspecified)" value_observed=0.88
molecule="O=C(C1CC(c2ccc(F)cc2)=NO1)N1CCN(Cc2ccccc2)CC1 (stereo unspecified)" value_observed=2.3
molecule="CCC(C)NC(=O)c1ccc(CS(=O)(=O)c2ccc(OC)cc2)o1 (stereo unspecified)" value_observed=-2.32
molecule="CC1Cn2c(nnc2-c2cccc(N)c2)S1 (stereo unspecified)" value_observed=3.44
molecule="O=C(NCCCN1CCN(c2ccccc2F)CC1)C1CCCN(S(=O)(=O)c2cnc[nH]2)C1 (stereo unspecified)" value_observed=0.21
molecule="C#CCN1C(=O)C(O)(CC(=O)c2ccc3c(c2)OCCO3)c2ccccc21 (stereo unspecified)" value_observed=6.75
molecule=CC(C)N(Cc1ccccc1)C(=O)c1cnc2n(c1=O)CCS2 value_observed=1.59
molecule=CCOC(=O)N1CCN(c2nc(SC)nc3sc4c(c23)CC(C)(C)OC4)CC1 value_observed=9.5
molecule=Cc1csc(NC(=O)NC2(C(F)(F)F)Oc3ccccc3O2)n1 value_observed=5.12
molecule=COCCCNC(=O)c1ccc(Cn2c(=O)[nH]c3ccccc3c2=O)cc1 value_observed=5.69
molecule=COc1ccc(S(=O)(=O)Cc2ccc(C(=O)NCc3ccco3)o2)cc1 value_observed=0.47
molecule=COc1ccc(C(=O)N(Cc2nc(-c3ccc(C)cc3)no2)C(C)C)cc1OC value_observed=5.36
molecule=Cc1cc(C)n2nc(Nc3ccccc3)cc2n1 value_observed=4.89
molecule=Cc1csc2nc(CNS(=O)(=O)c3ccc4c(c3)OCCO4)cn12 value_observed=2.03
molecule="C=CCOC(=O)C1CC=CCC1C(=O)Oc1ccc(F)cc1F (stereo unspecified)" value_observed=1.82
molecule="COC(=O)C1C2C=CC3(CN(C(C)C)C(=O)C13)O2 (stereo unspecified)" value_observed=1.89
molecule="O=C(O)CN1C(=O)Nc2ccc(Br)cc2C1c1ccccc1 (stereo unspecified)" value_observed=0.79
molecule=COc1ccc(S(=O)(=O)Cc2ccc(C(=O)N3CCN(c4cc(Cl)ccc4C)CC3)o2)cc1 value_observed=3.33
molecule=COc1cccc2c(=O)n(CC(=O)N3CCN(c4ccccc4)CC3)ccc12 value_observed=4.22
molecule=COc1cc(OC)cc(C(=O)Nc2cccc(C(C)=O)c2)c1 value_observed=1.49
molecule=O=C(c1c(Cl)nc2sccn12)N1CCN(c2cccc(Cl)c2)CC1 value_observed=5.21
molecule=O=C1CCCCCN1CP(=O)(O)CCc1ccccc1 value_observed=0.42
molecule=Cc1ccc(Nc2nc(N3CCOCC3)nc(N3CCOCC3)n2)cc1 value_observed=2.07
molecule=C=CCn1c(O)c(C2=c3ccccc3=NC2=O)s/c1=N/c1nccs1 value_observed=5.25
molecule=COc1ccc(-n2c(Cn3c(=O)sc4ccccc43)nnc2SCC(=O)N2CCCCC2)cc1 value_observed=6.13
molecule=CN1CCN(S(=O)(=O)c2ccc(-c3ccc(S(=O)(=O)N4CCN(C)CC4)cc3)cc2)CC1 value_observed=0.57
molecule="CCOC(=O)N1CCC(NC(=O)C(CC(C)C)NC(=O)C2CCCCC2)CC1 (stereo unspecified)" value_observed=1.8
molecule="COCCCNC(=O)CS(=O)Cc1nc(-c2ccccc2C)oc1C (stereo unspecified)" value_observed=6.27
molecule="CC(NC(=O)c1ccccc1O)c1ccccc1 (stereo unspecified)" value_observed=0

Values from PubChem BioAssay
